Source listed as ChEMBL document CHEMBL3879908.

target: Chemerin-like receptor 1 (Homo sapiens, UniProt Q99788); experiment: Displacement of [125I]-chemerin from ChemR23 (unknown origin) transfected in mouse BaF3 cells after 3 hrs by scintillation counting method
pIC50: −log10 of the molar value.
This listing pairs compounds with measured pIC50.

1. Cc1ccccc1N1CC(C(=O)Nc2cc(C(F)(F)F)cc(C(F)(F)F)c2)CC1=O (stereo not given) | 6.52 to 7.52
2. Cc1cccc(C)c1N1C[C@@](CN(C)CC(C)C)(C(=O)Nc2cc(C(F)(F)F)cc(C(F)(F)F)c2)[C@H](C)C1=O | ≥ 7.52
3. Cc1cccc(C)c1N1CC(NC(C)C)(C(=O)Nc2cc(C(F)(F)F)cc(C(F)(F)F)c2)CC1=O (stereo not given) | ≥ 7.52

pIC50 on Chemerin-like receptor 1 (Homo sapiens, UniProt Q99788) for CC[C@]1(C(=O)Nc2cc(Cl)cc(C(F)(F)F)c2)CC(=O)N(c2c(C)cccc2C)C1 is 6.52 to 7.52

pIC50 on Chemerin-like receptor 1 (Homo sapiens, UniProt Q99788) for COc1cccc(C)c1N1CC(C(=O)Nc2cc(C(F)(F)F)cc(C(F)(F)F)c2)(C(C)C)CC1=O (stereo not given) is 5.22 to 6.52

pIC50 on Chemerin-like receptor 1 (Homo sapiens, UniProt Q99788) for COCC(C)(C)N(C)C[C@@]1(C(=O)Nc2cc(C(F)(F)F)cc(C(F)(F)F)c2)CN(c2c(C)cccc2C)C(=O)[C@H]1C is ≥ 7.52

pIC50 on Chemerin-like receptor 1 (Homo sapiens, UniProt Q99788) for Cc1cccc(C)c1N1CC(C(=O)Nc2ccc(Cl)cc2Cl)CC1=O (stereo not given) is 5.22 to 6.52

pIC50 on Chemerin-like receptor 1 (Homo sapiens, UniProt Q99788) for Cc1cccc(C)c1N1CC(C(=O)Nc2cc(C(F)(F)F)cc(C(F)(F)F)c2)(C2=CCOCC2)CC1=O (stereo not given) is ≥ 7.52

pIC50 on Chemerin-like receptor 1 (Homo sapiens, UniProt Q99788) for Cc1cccc(C)c1N1C[C@@](CN(C)C(C)C)(C(=O)Nc2cc(C3CC3)cc(C(F)(F)F)c2)[C@H](C)C1=O is 6.52 to 7.52

pIC50 on Chemerin-like receptor 1 (Homo sapiens, UniProt Q99788) for Cc1cccc(C)c1N1C[C@@](C)(C(=O)Nc2cc(C(F)(F)F)cc(C(F)(F)F)c2)[C@H](C)C1=O is ≥ 7.52

---

target: Chemerin-like receptor 1 (Homo sapiens); experiment: Displacement of [125I]-chemerin from ChemR23 (unknown origin) transfected in mouse BaF3 cells after 3 hrs by scintillation counting method
pIC50: −log10 of the molar value.
property_label: pIC50

# compound COc1ccccc1N1CC(C(=O)Nc2cc(C3CC3)cc(C(F)(F)F)c2)(C(C)C)CC1=O (stereo not given) ; its pIC50 = 5.22 to 6.52

---

Biological target: Chemerin-like receptor 1 (Homo sapiens)
Sequence (Q99788 whole entry): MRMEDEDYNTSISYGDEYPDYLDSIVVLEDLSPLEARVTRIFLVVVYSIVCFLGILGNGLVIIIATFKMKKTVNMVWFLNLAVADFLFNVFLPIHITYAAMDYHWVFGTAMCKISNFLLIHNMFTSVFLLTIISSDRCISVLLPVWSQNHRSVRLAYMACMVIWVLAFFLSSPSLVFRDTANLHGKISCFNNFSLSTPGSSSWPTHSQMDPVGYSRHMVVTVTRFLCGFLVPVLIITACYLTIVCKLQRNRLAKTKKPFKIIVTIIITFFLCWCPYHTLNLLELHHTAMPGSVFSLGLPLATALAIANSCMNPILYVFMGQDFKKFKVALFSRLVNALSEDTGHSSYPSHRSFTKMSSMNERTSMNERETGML
Assay: Displacement of [125I]-chemerin from ChemR23 (unknown origin) transfected in mouse BaF3 cells after 3 hrs by scintillation counting method
pIC50: −log10 of the molar value.
property_label: pIC50

# molecule Cc1cccc(C)c1N1C[C@@](CN2CCC(F)(F)CC2)(C(=O)Nc2cc(C(F)(F)F)cc(C(F)(F)F)c2)[C@H](C)C1=O ; its pIC50 = ≥ 7.52

# molecule Cc1ccc(N2CC(C(=O)Nc3cc(C(F)(F)F)cc(C(F)(F)F)c3)CC2=O)c(C)c1 (configuration not stated) ; its pIC50 = 6.52 to 7.52

# molecule CCc1cccc(C)c1N1CC(C(=O)Nc2cccc(C(F)(F)F)c2)CC1=O (configuration not stated) ; its pIC50 = 5.22 to 6.52

# molecule Cc1cccc(S(C)(=O)=O)c1N1CC(C(=O)Nc2cc(C(F)(F)F)cc(C(F)(F)F)c2)CC1=O (configuration not stated) ; its pIC50 = 5.22 to 6.52

# molecule Cc1cccc(N2CC(C(=O)Nc3cc(C(F)(F)F)cc(C(F)(F)F)c3)CC2=O)c1C (configuration not stated) ; its pIC50 = 6.52 to 7.52

# molecule CCCN(C)C[C@@]1(C(=O)Nc2cc(C(F)(F)F)cc(C(F)(F)F)c2)CN(c2c(C)cccc2C)C(=O)[C@H]1C ; its pIC50 = ≥ 7.52

# molecule Cc1cccc(C)c1N1CC2(C(=O)Nc3cc(C(F)(F)F)cc(C(F)(F)F)c3)CC=CCC2C1=O (configuration not stated) ; its pIC50 = ≥ 7.52
